pIC50: −log10 of the molar value.
DPP-4 (Homo sapiens): reported pIC50 for various molecules.
Sequence (P27487 whole entry): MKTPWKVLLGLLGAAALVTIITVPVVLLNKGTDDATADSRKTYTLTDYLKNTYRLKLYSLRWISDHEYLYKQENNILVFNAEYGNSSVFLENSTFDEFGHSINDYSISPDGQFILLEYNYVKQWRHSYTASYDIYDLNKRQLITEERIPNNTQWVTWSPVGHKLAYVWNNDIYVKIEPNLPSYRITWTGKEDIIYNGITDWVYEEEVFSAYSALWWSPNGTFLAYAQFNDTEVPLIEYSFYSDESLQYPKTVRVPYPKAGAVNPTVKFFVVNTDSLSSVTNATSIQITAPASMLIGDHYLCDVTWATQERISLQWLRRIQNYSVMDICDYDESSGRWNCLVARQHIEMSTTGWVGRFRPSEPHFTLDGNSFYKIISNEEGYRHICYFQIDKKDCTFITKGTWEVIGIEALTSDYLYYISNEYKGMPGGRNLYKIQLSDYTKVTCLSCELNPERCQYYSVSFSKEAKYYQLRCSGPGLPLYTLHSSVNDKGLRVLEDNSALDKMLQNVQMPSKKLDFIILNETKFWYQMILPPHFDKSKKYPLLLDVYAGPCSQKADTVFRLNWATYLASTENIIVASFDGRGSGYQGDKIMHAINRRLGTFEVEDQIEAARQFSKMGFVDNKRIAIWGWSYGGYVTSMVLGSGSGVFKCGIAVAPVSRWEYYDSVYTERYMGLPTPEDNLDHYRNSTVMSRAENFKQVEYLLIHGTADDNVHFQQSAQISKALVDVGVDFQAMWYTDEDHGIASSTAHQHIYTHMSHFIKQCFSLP
measured-endpoint: pIC50

In [3]: df
Out[3]:
                               smiles_entry  measured_endpoint  readout_value
0  Cn1c(=O)c(=O)n(C)c2cc(S(=O)(=O)Nc3ccc(Br)cc3)ccc21              pIC50           9.14
1  Cn1c(=O)c(=O)n(C)c2cc(S(=O)(=O)Nc3ccc(S(N)(=O)=O)cc3)ccc21              pIC50           9.21

###

tested on: high-fat diet-fed/streptozotocin (HFD/STZ) induced T2DM male albino mice; assay: Acute hypoglycemic activity, intraperitoneal glucose tolerance test; type: in vivo; conditions: IPGTT, diabetic mice, single dose 10 mg kg^−1, 6 h, mean ±SD
measured-endpoint: Blood glucose level (6 h) (mg/dL)
Hi! Could you send only the number? It should be in mg/dL, unit omitted.

>>> print(df.to_string())
                               smiles_entry      u  readout_value
0  Cn1c(=O)c(=O)n(C)c2cc(S(=O)(=O)NNC(=O)c3ccccc3)ccc21  mg/dL          80.16

Any idea what its Blood glucose level (6 h) is? The compound is CC(=O)NNS(=O)(=O)c1ccc2c(c1)n(C)c(=O)c(=O)n2C
85.23

Now this one: CC(=O)c1ccc(NS(=O)(=O)c2ccc3c(c2)n(C)c(=O)c(=O)n3C)cc1
96.24

Now this one: Cn1c(=O)c(=O)n(C)c2cc(S(=O)(=O)Nc3ccc(F)cc3)ccc21
93.33

Now this one: Cn1c(=O)c(=O)n(C)c2cc(S(=O)(=O)Nc3ccc(Br)cc3)ccc21
92.17

Now this one: Cn1c(=O)c(=O)n(C)c2cc(S(=O)(=O)Nc3ccccc3S)ccc21
93.25

Now this one: Cn1c(=O)c(=O)n(C)c2cc(S(=O)(=O)Nc3ccc(C(=O)O)cc3)ccc21
90.06

Now this one: Cn1c(=O)c(=O)n(C)c2cc(S(=O)(=O)NNC(=O)CCl)ccc21
85.25

###

target: UniProtKB Q6V1X1
Sequence (Q6V1X1 whole entry): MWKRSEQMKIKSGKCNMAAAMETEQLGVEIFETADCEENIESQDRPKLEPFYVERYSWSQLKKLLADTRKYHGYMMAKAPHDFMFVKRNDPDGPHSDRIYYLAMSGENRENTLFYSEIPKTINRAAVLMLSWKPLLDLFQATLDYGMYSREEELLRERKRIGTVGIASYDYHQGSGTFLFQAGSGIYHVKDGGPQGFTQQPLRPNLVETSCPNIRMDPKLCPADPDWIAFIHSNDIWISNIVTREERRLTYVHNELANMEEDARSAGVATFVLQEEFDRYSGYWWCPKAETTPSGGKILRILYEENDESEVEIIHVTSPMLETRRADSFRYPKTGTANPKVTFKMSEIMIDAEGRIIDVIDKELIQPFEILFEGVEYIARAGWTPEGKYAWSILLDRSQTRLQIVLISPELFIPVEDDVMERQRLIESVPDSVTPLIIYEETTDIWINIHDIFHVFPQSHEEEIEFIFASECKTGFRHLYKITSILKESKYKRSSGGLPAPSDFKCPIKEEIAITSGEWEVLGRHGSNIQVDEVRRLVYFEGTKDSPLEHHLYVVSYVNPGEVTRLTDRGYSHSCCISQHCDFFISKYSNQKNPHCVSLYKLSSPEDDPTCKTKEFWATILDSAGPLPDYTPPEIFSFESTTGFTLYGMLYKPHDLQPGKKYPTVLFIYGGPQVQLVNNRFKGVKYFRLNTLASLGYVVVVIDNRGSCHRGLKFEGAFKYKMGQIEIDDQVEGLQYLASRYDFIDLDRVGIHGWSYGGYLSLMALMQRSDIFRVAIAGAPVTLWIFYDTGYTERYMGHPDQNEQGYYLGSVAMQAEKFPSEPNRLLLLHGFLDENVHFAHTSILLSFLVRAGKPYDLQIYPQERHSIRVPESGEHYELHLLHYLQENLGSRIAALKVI
pIC50: −log10 of the molar value.
measured-endpoint: pIC50

Any idea what its pIC50 is? The compound is CC(=O)NNS(=O)(=O)c1ccc2c(c1)n(C)c(=O)c(=O)n2C [Compound 9a]
< 4.00

###

test system: high-fat diet-fed/streptozotocin (HFD/STZ) induced T2DM male albino mice; test: Acute hypoglycemic activity, intraperitoneal glucose tolerance test; type: in vivo; settings: IPGTT, diabetic mice, single dose 10 mg kg^−1, 3 h, mean ±SD
measured-endpoint: Blood glucose level (3 h) (mg/dL)
Hi! Could you send only the number? It should be in mg/dL, unit omitted.

See these solved cases before continuing.
>>> print(df.to_string())
                                   molecule  readout_value
0  Cn1c(=O)c(=O)n(C)c2cc(S(=O)(=O)Nc3ccc(S(N)(=O)=O)cc3)ccc21 [Compound 7a]         122.08
1  CC(=O)NNS(=O)(=O)c1ccc2c(c1)n(C)c(=O)c(=O)n2C [Compound 9a]          97.12
2  Cn1c(=O)c(=O)n(C)c2cc(S(=O)(=O)NNC(=O)NC(=O)c3ccccc3)ccc21 [Compound 10c]         137.34
3  Cn1c(=O)c(=O)n(C)c2cc(S(=O)(=O)Nc3ccccc3S)ccc21 [Compound 6f]          97.09
4  Cn1c(=O)c(=O)n(C)c2cc(S(=O)(=O)NNC(=O)CCl)ccc21 [Compound 9b]          89.12
5  Cn1c(=O)c(=O)n(C)c2cc(S(=O)(=O)NNC(=O)NCc3ccccc3)ccc21 [Compound 10b]          90.66

Please examine the following record next.
Any idea what its Blood glucose level (3 h) is? The molecule is Cn1c(=O)c(=O)n(C)c2cc(S(=O)(=O)Nc3ccc(F)cc3)ccc21 [Compound 6d]
99.33

###

biological target: DPP-9 (Homo sapiens, UniProt Q86TI2)
Sequence (Q86TI2 whole entry): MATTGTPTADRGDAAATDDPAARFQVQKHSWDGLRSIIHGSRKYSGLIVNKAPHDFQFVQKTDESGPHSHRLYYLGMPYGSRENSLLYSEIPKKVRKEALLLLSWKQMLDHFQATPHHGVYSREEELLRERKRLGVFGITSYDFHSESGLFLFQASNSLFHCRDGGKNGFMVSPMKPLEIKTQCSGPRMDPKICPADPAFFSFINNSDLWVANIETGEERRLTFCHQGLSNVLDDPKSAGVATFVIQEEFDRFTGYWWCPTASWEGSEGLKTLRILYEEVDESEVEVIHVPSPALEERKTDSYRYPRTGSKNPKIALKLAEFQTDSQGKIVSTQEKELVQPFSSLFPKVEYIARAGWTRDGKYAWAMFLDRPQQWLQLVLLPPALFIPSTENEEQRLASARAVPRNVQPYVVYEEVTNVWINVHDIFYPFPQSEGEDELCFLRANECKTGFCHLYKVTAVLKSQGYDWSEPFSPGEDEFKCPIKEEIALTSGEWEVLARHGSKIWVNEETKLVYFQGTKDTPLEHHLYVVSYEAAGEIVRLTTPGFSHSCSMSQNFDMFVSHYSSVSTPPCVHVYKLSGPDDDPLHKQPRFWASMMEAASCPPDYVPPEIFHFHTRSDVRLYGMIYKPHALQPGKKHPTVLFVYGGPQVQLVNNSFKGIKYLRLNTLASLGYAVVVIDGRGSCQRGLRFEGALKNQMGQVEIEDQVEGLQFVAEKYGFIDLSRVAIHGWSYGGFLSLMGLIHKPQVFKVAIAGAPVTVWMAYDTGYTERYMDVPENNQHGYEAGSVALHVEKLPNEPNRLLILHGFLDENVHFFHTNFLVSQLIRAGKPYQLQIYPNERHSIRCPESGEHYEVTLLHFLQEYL
measured-endpoint: IC50

Form field: IC50 recorded for CC(=O)NNS(=O)(=O)c1ccc2c(c1)n(C)c(=O)c(=O)n2C [Compound 9a] with DPP-9 (Homo sapiens, UniProt Q86TI2) (enter value)
> 100 µM

###

test system: high-fat diet-fed/streptozotocin (HFD/STZ) induced T2DM male albino mice; experiment: Acute hypoglycemic activity, intraperitoneal glucose tolerance test; type: in vivo; settings: IPGTT, diabetic mice, single dose 10 mg kg^−1, 6 h, mean ±SD
measured-endpoint: Blood glucose level (6 h) (mg/dL)
Hi! Could you send only the number? It should be in mg/dL, unit omitted.

                                   compound          measured_endpoint      u  readout_value
0  Cn1c(=O)c(=O)n(C)c2cc(S(=O)(=O)NNC(=O)NCc3ccccc3)ccc21 [Compound 10b]  Blood glucose level (6 h)  mg/dL          85.66

Please examine the following record next.
Form field: Blood glucose level (6 h) recorded for CC#CCn1c(N2CCC[C@@H](N)C2)nc2c1c(=O)n(Cc1nc(C)c3ccccc3n1)c(=O)n2C [Linagliptin, reference compound] with high-fat diet-fed/streptozotocin (HFD/STZ) induced T2DM male albino mice (enter value)
85.00

###

system: high-fat diet-fed/streptozotocin (HFD/STZ) induced T2DM male albino mice; experiment: Acute hypoglycemic activity, intraperitoneal glucose tolerance test; type: in vivo; details: IPGTT, diabetic mice, single dose 10 mg kg^−1, 3 h, mean ±SD
measured-endpoint: Blood glucose level (3 h) (mg/dL)
Hi! Could you send only the number? It should be in mg/dL, unit omitted.

See these solved cases before continuing.
                                   compound      u  readout_value
0  Cn1c(=O)c(=O)n(C)c2cc(S(=O)(=O)NNC(=O)c3ccccc3)ccc21  mg/dL          96.68
1  Cn1c(=O)c(=O)n(C)c2cc(S(=O)(=O)Nc3ccc(Br)cc3)ccc21  mg/dL          95.28

Any idea what its Blood glucose level (3 h) is? The compound is CC#CCn1c(N2CCC[C@@H](N)C2)nc2c1c(=O)n(Cc1nc(C)c3ccccc3n1)c(=O)n2C [Linagliptin, reference compound]
85.11

Now this one: CC(=O)c1ccc(NS(=O)(=O)c2ccc3c(c2)n(C)c(=O)c(=O)n3C)cc1
95.67

Now this one: Cn1c(=O)c(=O)n(C)c2cc(S(=O)(=O)NNC(=S)NC3CCCCC3)ccc21 [Compound 10f]
100.06

Now this one: Cn1c(=O)c(=O)n(C)c2cc(S(=O)(=O)Nc3ccc(C(=O)O)cc3)ccc21
90.68

###

The following compounds are shown together with reported Blood glucose level (6 h) values.
tested on: high-fat diet-fed/streptozotocin (HFD/STZ) induced T2DM male albino mice; assay: Acute hypoglycemic activity, intraperitoneal glucose tolerance test; format: in vivo; conditions: IPGTT, diabetic mice, single dose 10 mg kg^−1, 6 h, mean ±SD
Hi! Could you send only the number? It should be in mg/dL, unit omitted.

See these solved cases before continuing.
In [3]: df
Out[3]:
                                   compound  readout_value
0  Cn1c(=O)c(=O)n(C)c2cc(S(=O)(=O)NNC(=S)NC3CCCCC3)ccc21 [Compound 10f]          89.66
1  Cn1c(=O)c(=O)n(C)c2cc(S(=O)(=O)NNC(=O)NC(=O)c3ccccc3)ccc21 [Compound 10c]         104.08

Please examine the following record next.
Any idea what its Blood glucose level (6 h) is? The compound is Cn1c(=O)c(=O)n(C)c2cc(S(=O)(=O)Nc3ccc(S(N)(=O)=O)cc3)ccc21
99.25
